- target desc: XIAP BIR2-3 (Homo sapiens, UniProt P98170, C202A/C213G)
- Construct: His-BIR2-3 (125-356, C202A/C213G, XIAP)
- Sequence (P98170 125-356 C202A/C213G): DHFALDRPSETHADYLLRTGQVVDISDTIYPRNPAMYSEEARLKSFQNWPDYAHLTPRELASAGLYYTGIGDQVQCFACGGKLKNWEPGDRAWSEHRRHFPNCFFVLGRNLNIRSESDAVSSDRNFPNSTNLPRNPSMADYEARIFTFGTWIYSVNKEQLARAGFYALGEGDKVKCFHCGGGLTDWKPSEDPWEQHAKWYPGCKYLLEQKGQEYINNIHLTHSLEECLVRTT
- assay name: XIAP-BIR2-3 dimeric SMAC Peptide Homogeneous Time Resolved Fluorescence (HTRF) Assay
- Assay type: binding
- assay context: 0.5 nM N-His-BIR2-3 (125-356, C202A/C213G, XIAP), 20 nM fluorescein labeled dimeric SMAC peptide; HTRF signal; read-out: XIAP BIR2-3 IC50
Lab note: anything with IC50 below 3 nM is marked T; values at 3 nM or higher are marked F.

[
  {
    "compound": "CN[C@@H](C)C(=O)N[C@H](C(=O)N1Cc2cc([C@H]3C[C@@H](C(=O)N[C@@H](Cc4ccccc4)C(=O)O)N(C(=O)[C@@H](NC(=O)[C@H](C)NC)C(C)(C)C)C3)ccc2C[C@H]1C(=O)N[C@@H](Cc1ccccc1)C(=O)O)C(C)(C)C",
    "discrete label": "T"
  },
  {
    "compound": "CN[C@@H](C)C(=O)N[C@H](C(=O)N1C[C@@H](NC(=O)c2ccc3c(c2)CN(C(=O)[C@@H](NC(=O)[C@H](C)NC)C24CC5CC(CC(C5)C2)C4)[C@H](C(=O)NC2CCCc4ccccc42)C3)C[C@H]1C(=O)NC1CCCc2ccccc21)C(C)(C)C (some centres unmarked)",
    "discrete label": "F"
  },
  {
    "compound": "CCN[C@@H](C)C(=O)N[C@H](C(=O)N1Cc2cc(C(=O)N[C@H]3C[C@@H](C(=O)NC4CCCc5ccccc54)N(C(=O)[C@@H](NC(=O)[C@H](C)NC)C(C)(C)C)C3)ccc2C[C@H]1C(=O)NC1CCCc2ccccc21)C(C)(C)C (some centres unmarked)",
    "discrete label": "F"
  },
  {
    "compound": "CN[C@@H](C)C(=O)N[C@H](C(=O)N1CC(c2ccc3c(c2)CN(C(=O)[C@@H](NC(=O)[C@H](C)NC)C(C)(C)C)[C@H](C(=O)NC2CCCc4ccccc42)C3)C[C@H]1C(=O)NC(Cc1ccccc1)C(=O)Nc1ccc(F)cc1)C(C)(C)C (stereo in doubt)",
    "discrete label": "T"
  },
  {
    "compound": "CN[C@@H](C)C(=O)N[C@H](C(=O)N1Cc2cc([C@H]3C[C@@H](C(=O)N[C@@H]4CCCc5ccccc54)N(C(=O)[C@@H](NC(=O)[C@H](C)NC)C(C)(C)C)C3)ccc2C[C@H]1C(=O)N[C@@H](Cc1ccccc1)C(=O)N1CCOCC1)C(C)(C)C",
    "discrete label": "T"
  }
]

**Query** For this compound, is IC50 lower than 3 nM? CN[C@@H](C)C(=O)N[C@H](C(=O)N1C[C@@H](c2ccc3c(c2)CN(C(=O)[C@@H](NC(=O)[C@H](C)NC)C(C)(C)C)[C@H](C(=O)N[C@@H]2CCCc4ccccc42)C3)C[C@H]1C(=O)N[C@@H](Cc1ccccc1)C(=O)NCCOC)C(C)(C)C
**Result** F

**Query** For this compound, is IC50 lower than 3 nM? CCNC(=O)[C@H](Cc1ccccc1)NC(=O)[C@@H]1C[C@H](c2ccc3c(c2)CN(C(=O)[C@@H](NC(=O)[C@H](C)NC)C(C)(C)C)[C@H](C(=O)N[C@@H]2CCCc4ccccc42)C3)CN1C(=O)[C@@H](NC(=O)[C@H](C)NC)C(C)(C)C
**Result** F

The reported measurements were obtained from patent US8889712B2.
